Where these numbers come from: ChEMBL document CHEMBL5154744

# target or system: Hypoxanthine-guanine phosphoribosyltransferase (Homo sapiens)
# Sequence (P00492 whole entry): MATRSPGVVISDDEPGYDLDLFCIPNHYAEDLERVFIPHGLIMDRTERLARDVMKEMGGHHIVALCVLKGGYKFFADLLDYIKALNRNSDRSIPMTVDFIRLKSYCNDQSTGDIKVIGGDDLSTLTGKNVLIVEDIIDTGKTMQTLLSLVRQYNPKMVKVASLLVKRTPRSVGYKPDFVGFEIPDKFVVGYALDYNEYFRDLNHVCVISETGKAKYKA
# method summary: Inhibition of human HGPRT using PRib-PP as substrate by spectrophotometric assay

{"columns": ["compound", "value unit", "Ki"],
 "data": [
  ["O=c1[nH]cnc2c1ncn2C[C@@H](COCP(=O)([O-])[O-])OCC(O)P(=O)([O-])[O-].[Na+].[Na+].[Na+].[Na+] (stereo partly drawn)", "nM", 4000],
  ["Nc1nc2c(ncn2C[C@@H](COCP(=O)([O-])[O-])OC[C@@H](O)P(=O)([O-])[O-])c(=O)[nH]1.[Na+].[Na+].[Na+].[Na+]", "nM", 70],
  ["Nc1nc2c(ncn2CCOCC(O)P(=O)(O)O)c(=O)[nH]1 (stereo not drawn)", "nM", 200],
  ["Nc1nc2c(ncn2C[C@@H](COCP(=O)([O-])[O-])OCC(O)CO)c(=O)[nH]1.[Na+].[Na+] (stereo partly drawn)", "nM", 9000],
  ["O=c1[nH]cnc2c1ncn2C[C@H](COCP(=O)([O-])[O-])OCCCP(=O)([O-])[O-].[Na+].[Na+].[Na+].[Na+]", "nM", 300],
  ["Nc1nc2c(ncn2C[C@@H](COCP(=O)([O-])[O-])OCC(O)P(=O)([O-])[O-])c(=O)[nH]1.[Na+].[Na+].[Na+].[Na+] (stereo partly drawn)", "nM", 100],
  ["Nc1nc2c(ncn2C[C@@H](COCP(=O)([O-])[O-])OCCCP(=O)([O-])[O-])c(=O)[nH]1.[Na+].[Na+].[Na+].[Na+]", "nM", 500],
  ["Nc1nc2c(ncn2C[C@@H](COCP(=O)([O-])[O-])OC[C@H](O)P(=O)([O-])[O-])c(=O)[nH]1.[Na+].[Na+].[Na+].[Na+]", "nM", 100],
  ["O=c1[nH]cnc2c1ncn2CCOCC(O)P(=O)(O)O (stereo not drawn)", "nM", 2000],
  ["Nc1nc2c(ncn2C[C@H](COCP(=O)([O-])[O-])OCC(O)CO)c(=O)[nH]1.[Na+].[Na+] (stereo partly drawn)", "nM", 4000],
  ["O=C(CCP(=O)(O)O)N1CC(OCCP(=O)(O)O)[C@H](n2cnc3c(=O)[nH]cnc32)C1 (stereo partly drawn)", "nM", 20],
  ["Nc1nc2c(ncn2C[C@@H](COCCOP(=O)(O)O)COCP(=O)(O)O)c(=O)[nH]1", "nM", 6],
  ["Nc1nc2c(ncn2C[C@H](COCP(=O)([O-])[O-])OCC(O)P(=O)([O-])[O-])c(=O)[nH]1.[Na+].[Na+].[Na+].[Na+] (stereo partly drawn)", "nM", 400],
  ["O=c1[nH]cnc2c1ncn2CCCC(O)C(O)P(=O)(O)O (stereo not drawn)", "nM", 5000],
  ["O=c1[nH]cnc2c1ncn2C[C@@H](COCP(=O)([O-])[O-])OCCCP(=O)([O-])[O-].[Na+].[Na+].[Na+].[Na+]", "nM", 22000],
  ["O=c1[nH]cnc2c1ncn2C[C@H](COCP(=O)([O-])[O-])OCC(O)P(=O)([O-])[O-].[Na+].[Na+].[Na+].[Na+] (stereo partly drawn)", "nM", 2000],
  ["O=c1[nH]cnc2c1ncn2CCC/C=C/P(=O)(O)O", "nM", 6000],
  ["Nc1nc2c(ncn2C[C@H](COCP(=O)([O-])[O-])OCCCP(=O)([O-])[O-])c(=O)[nH]1.[Na+].[Na+].[Na+].[Na+]", "nM", 400]
]}
